Target: T1, cholecystokinin-2/gastrin receptor (CCK2R) (Homo sapiens, UniProt P32239)
T1 chain: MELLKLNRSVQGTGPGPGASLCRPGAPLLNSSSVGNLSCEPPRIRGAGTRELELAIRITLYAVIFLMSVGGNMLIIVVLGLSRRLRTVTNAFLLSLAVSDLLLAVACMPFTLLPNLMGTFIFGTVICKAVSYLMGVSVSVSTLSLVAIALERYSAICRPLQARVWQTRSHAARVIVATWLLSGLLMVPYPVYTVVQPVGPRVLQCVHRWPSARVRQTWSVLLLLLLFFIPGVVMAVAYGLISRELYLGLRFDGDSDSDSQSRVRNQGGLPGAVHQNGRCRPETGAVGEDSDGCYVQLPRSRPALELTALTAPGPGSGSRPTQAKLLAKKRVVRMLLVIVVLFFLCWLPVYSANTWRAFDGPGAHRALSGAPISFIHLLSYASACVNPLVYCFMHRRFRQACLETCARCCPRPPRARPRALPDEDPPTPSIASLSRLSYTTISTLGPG
Test: competition with bivQ probe on cells, NIR fluorescence
assay readout: IC50 (nM)

binder	obs value
LEEEEEAYGWMDF [HG-13 minigastrin]	16.6
